Source: patent US9732061B2

molecular target: Human CB2R (Cannabanoid receptor 2) (Homo sapiens (Human), UniProt P34972); assay: CB-2 in vitro cAMP (HTRF) assay; details: HEK-293 cells stably transfected with human CB2R, 250 nM Forskolin, mean where tested more than once
Sequence (P34972 whole entry): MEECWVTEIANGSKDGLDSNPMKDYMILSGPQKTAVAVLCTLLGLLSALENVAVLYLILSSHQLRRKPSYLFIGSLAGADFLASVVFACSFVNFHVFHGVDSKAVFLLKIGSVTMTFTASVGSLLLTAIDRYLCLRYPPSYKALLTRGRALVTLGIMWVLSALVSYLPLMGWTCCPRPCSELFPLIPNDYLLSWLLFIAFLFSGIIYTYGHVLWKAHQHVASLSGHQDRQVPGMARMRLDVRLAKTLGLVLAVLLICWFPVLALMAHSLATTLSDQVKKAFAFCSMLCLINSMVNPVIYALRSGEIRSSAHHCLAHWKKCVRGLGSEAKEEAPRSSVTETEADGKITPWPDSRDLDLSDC
RECORDED METRIC: pEC50
Give bare numbers, as −log10 of the molar value.

Consider the worked cases shown below.
SMILES STRUCTURE: COc1ccc(CNc2cnnc3ccc(C(c4ccc(Cl)cc4)c4ccc(Cl)cc4)cc23)cc1
TARGET DESC: Human CB2R (Cannabanoid receptor 2) (Homo sapiens (Human), UniProt P34972)
pEC50: 5.45

SMILES STRUCTURE: O=C(O)c1ccc(S(=O)(=O)N2CCC(Nc3cnnc4ccc(C(c5ccc(Cl)cc5)c5ccc(Cl)cc5)cc34)CC2)cc1
TARGET DESC: Human CB2R (Cannabanoid receptor 2) (Homo sapiens (Human), UniProt P34972)
pEC50: 5.83

SMILES STRUCTURE: O=C(O)c1ccc(N2CCC(Nc3cnnc4ccc(C(c5ccc(Cl)cc5)c5ccc(Cl)cc5)cc34)CC2)cc1
TARGET DESC: Human CB2R (Cannabanoid receptor 2) (Homo sapiens (Human), UniProt P34972)
pEC50: 5.09

SMILES STRUCTURE: O=C(O)c1cccc(CCNc2cnnc3ccc(C(c4ccc(Cl)cc4)c4ccc(Cl)cc4)cc23)c1
TARGET DESC: Human CB2R (Cannabanoid receptor 2) (Homo sapiens (Human), UniProt P34972)
pEC50: 5.40

SMILES STRUCTURE: O=C(O)c1csc(S(=O)(=O)N2CCC(Nc3cnnc4ccc(C(c5ccc(Cl)cc5)c5ccc(Cl)cc5)cc34)CC2)c1
TARGET DESC: Human CB2R (Cannabanoid receptor 2) (Homo sapiens (Human), UniProt P34972)
pEC50: 5.70

Hi team, please reply with pEC50 for each item in this list.
1. O=S(=O)(N1CCC(Nc2cnnc3ccc(C(c4ccc(F)cc4)c4ccc(F)cc4)cc23)CC1)C(F)(F)F
2. O=C(O)c1ccc(S(=O)(=O)N2CCC(Nc3cnnc4ccc(C(c5ccc(Cl)cc5)c5ccc(Cl)cc5)cc34)CC2)s1

5.33
5.67

====

molecular target: Human CB1R (Cannabanoid receptor 1) (Homo sapiens (Human)); test: CB-1 in vitro cAMP (HTRF) assay; settings: HEK-293 cells stably transfected with human CB1R, 250 nM Forskolin, mean where tested more than once
Sequence (P21554 whole entry): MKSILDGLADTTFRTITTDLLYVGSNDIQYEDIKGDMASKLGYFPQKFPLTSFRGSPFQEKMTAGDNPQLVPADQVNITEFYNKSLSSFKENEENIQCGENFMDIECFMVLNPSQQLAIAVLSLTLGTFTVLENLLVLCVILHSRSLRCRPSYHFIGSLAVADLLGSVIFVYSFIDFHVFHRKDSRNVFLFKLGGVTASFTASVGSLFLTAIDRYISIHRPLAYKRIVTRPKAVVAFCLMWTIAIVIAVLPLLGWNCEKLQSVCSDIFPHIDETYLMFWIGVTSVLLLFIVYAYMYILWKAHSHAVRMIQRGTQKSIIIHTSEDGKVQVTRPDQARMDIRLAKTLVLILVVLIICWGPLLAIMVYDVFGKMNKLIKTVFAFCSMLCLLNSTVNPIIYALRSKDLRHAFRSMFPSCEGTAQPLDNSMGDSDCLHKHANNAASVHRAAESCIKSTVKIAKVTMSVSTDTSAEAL
RECORDED METRIC: pEC50
One number for each entry, as −log10 of the molar value.

COMPOUND: O=C(c1ccccc1)N1CCC(Nc2cnnc3ccc(C(c4ccc(Cl)cc4)c4ccc(Cl)cc4)cc23)CC1 [Compound 3]
REPORTED VALUE: 6.33
--
COMPOUND: O=C(O)c1ccc(N2CCC(Nc3cnnc4ccc(C(c5ccc(Cl)cc5)c5ccc(Cl)cc5)cc34)CC2)cc1 [Compound 17]
REPORTED VALUE: 5.00
--
COMPOUND: O=C(O)c1ccc(S(=O)(=O)N2CCC(Nc3cnnc4ccc(C(c5ccc(Cl)cc5)c5ccc(Cl)cc5)cc34)CC2)cc1 [Compound 10]
REPORTED VALUE: 6.52
--
COMPOUND: O=S(=O)(N1CCC(Nc2cnnc3ccc(C(c4ccc(Cl)cc4)c4ccc(Cl)cc4)cc23)CC1)C(F)(F)F [Compound 5]
REPORTED VALUE: 7.89

Please state pEC50 for every compound in the list that follows.
1. OC(c1ccc(Cl)cc1)(c1ccc(Cl)cc1)c1ccc2nncc(NCc3cccc(C(F)(F)F)c3)c2c1 [Compound 6]
2. O=C(O)c1cccc(CN2CCC(Nc3cnnc4ccc(C(c5ccc(Cl)cc5)c5ccc(Cl)cc5)cc34)CC2)c1 [Compound 12]
3. O=C(O)c1ccccc1CN1CCC(Nc2cnnc3ccc(C(c4ccc(Cl)cc4)c4ccc(Cl)cc4)cc23)CC1 [Compound 18]

1. 6.60
2. 6.52
3. 5.02
